For each of the compounds below, state its IC50.
- targetDesc: 20S human housekeeping proteasome (Homo sapiens)
- assayRemarks: 20S ChT-L proteolytic activity assay (Suc-LLVY-AMC hydrolysis, Rpt5 peptide-activated)
- Type: biochemical
- testParameters: read-out: IC50, ChT-L activity of the 20S proteasome
One number for each entry, in µM.

Request - read-out IC50 | tested on 20S human housekeeping proteasome (Homo sapiens) | compound "O=C(OCCCc1ccccc1)[C@@H]1CCCN1C(=O)OCc1ccccc1"
6.6

Consider next the compound COc1cc(CCCOC(=O)C2CCCCN2C(=O)OCc2ccccc2)cc(OC)c1OC (racemic) in the same way.
11.5

Below are some compounds; for each one, tell me its IC50.
1. COc1cc(CCCOC(=O)[C@@H]2CCCCN2C(=O)OCc2ccccc2)cc(OC)c1OC
2. COc1cc(CCCOC(=O)[C@@H]2CCCCN2C(=O)OCC(C)C)cc(OC)c1OC

[3.1, 15.2]

----------
- targetDesc: 20S human housekeeping proteasome (Homo sapiens)
- assayRemarks: 20S ChT-L proteolytic activity assay (Suc-LLVY-AMC hydrolysis, Rpt5 peptide-activated)
- Type: biochemical
- testParameters: Table 2, pipecolic acid derivatives; ChT-L activity of 20S; read-out: IC50
pIC50: −log10 of the molar value.
Parameter threshold = 5. Response is 1 when pIC50 meets or exceeds it, else -1.

Is the recorded value of pIC50 equal to or greater than 5 for this compound? "CCCOC(=O)[C@@H]1CCCCN1C(=O)OCc1ccccc1"
-1

Consider next the compound COc1cc(CCCOC(=O)C2CCCCN2C(=O)C(=O)C2CCCCC2)cc(OC)c1OC (racemic) in the same way.
1

Please answer likewise for "COc1cc(COC(=O)[C@@H]2CCCCN2C(=O)OCc2ccccc2)cc(OC)c1OC"
-1

----------
I'd appreciate it if you could supply IC50 values for the items below.
- targetDesc: 20S human housekeeping proteasome (Homo sapiens)
- assayRemarks: 20S ChT-L proteolytic activity assay (Suc-LLVY-AMC hydrolysis, Rpt5 peptide-activated)
- Type: biochemical
- testParameters: Table 3, proline derivatives; ChT-L activity of 20S; read-out: IC50
I'd appreciate it if you included the unit after the number.

Fill in: IC50 of "O=C(OCCc1ccccc1)[C@@H]1CCCN1C(=O)OCc1ccccc1" is ___
19.2 µM

What do we get for "COc1cc(CCCOC(=O)[C@@H]2CCCN2C(=O)OCc2ccccc2)cc(OC)c1OC" ?
23.8 µM

---
Field request: IC50 | item: "O=C(OCc1ccccc1)[C@@H]1CCCN1C(=O)OCc1ccccc1"
33.5 µM

----------
- targetDesc: 20S human housekeeping proteasome (Homo sapiens, UniProt P28074)
- assayRemarks: 20S ChT-L proteolytic activity assay (Suc-LLVY-AMC hydrolysis, Rpt5 peptide-activated)
- Format: biochemical
- testParameters: SAR comparison
endpoint: activity against 20S ChT-L proteolysis, in words

Can you look up the measured activity against 20S ChT-L proteolysis, in words of O=C(OCc1ccccc1)[C@@H]1CCCN1C(=O)OCc1ccccc1 [Compound 15] for me?
decreased activity

Okay, and O=C(OCCc1ccccc1)[C@@H]1CCCN1C(=O)OCc1ccccc1 [Compound 14] ?
decreased activity

----------
- targetDesc: 20S human housekeeping proteasome (Homo sapiens, UniProt P28074)
- assayRemarks: 20S ChT-L proteolytic activity assay (Suc-LLVY-AMC hydrolysis, Rpt5 peptide-activated)
- Format: biochemical
- testParameters: Table 2, pipecolic acid derivatives; ChT-L activity of 20S; read-out: IC50
endpoint: pIC50
Give bare numbers, as −log10 of the molar value.

Give pIC50 (20S human housekeeping proteasome (Homo sapiens, UniProt P28074)) of the following compound: "COc1cc(CCOC(=O)[C@@H]2CCCCN2C(=O)OCc2ccccc2)cc(OC)c1OC"
4.70

"O=C(OCCCc1ccccc1)[C@@H]1CCCCN1C(=O)OCc1ccccc1" , same question.
5.59

Consider next the compound "COc1cc(CCCOC(=O)[C@@H]2CCCCN2C(=O)OCc2ccccc2)cc(OC)c1OC" in the same way.
5.70

Let us move to another entry and its pIC50.
# returns recorded pIC50 (system: 20S human housekeeping proteasome (Homo sapiens, UniProt P28074)) for "COc1cc(CCCOC(=O)[C@@H]2CCCN(C(=O)OCc3ccccc3)C2)cc(OC)c1OC"
4.83

# credit: patent US20240423968A1
